Target: T1, Ala mutant SEQ ID NO: 35 (human)
T1 peptide: EENMDDQWAQDEMEIGY
Test: ELISA, peptide on plate (10 ug/mL)

BINDER: A11 (antibody, IgG1, V domains shown, Chicken variable regions in mouse chimeric antibody (IgG1) expression vectors; also called anti-PAD4 antibody A11; A11 etc) VH: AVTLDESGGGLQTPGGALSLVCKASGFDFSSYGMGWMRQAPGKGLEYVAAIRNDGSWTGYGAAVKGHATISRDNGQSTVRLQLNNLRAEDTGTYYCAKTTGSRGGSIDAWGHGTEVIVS VL: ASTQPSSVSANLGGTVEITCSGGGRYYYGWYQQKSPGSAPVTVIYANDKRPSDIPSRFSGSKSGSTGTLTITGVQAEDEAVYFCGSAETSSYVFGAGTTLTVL
MEASUREMENT UNITS: OD
absorbance 490 nm/630 nm: 0.023
